Data origin: ChEMBL document CHEMBL3576860

- system.under.test: Neuronal acetylcholine receptor; alpha3/beta4 (Rattus norvegicus, UniProt P04757+P12392)
- Sequence (P04757 whole entry): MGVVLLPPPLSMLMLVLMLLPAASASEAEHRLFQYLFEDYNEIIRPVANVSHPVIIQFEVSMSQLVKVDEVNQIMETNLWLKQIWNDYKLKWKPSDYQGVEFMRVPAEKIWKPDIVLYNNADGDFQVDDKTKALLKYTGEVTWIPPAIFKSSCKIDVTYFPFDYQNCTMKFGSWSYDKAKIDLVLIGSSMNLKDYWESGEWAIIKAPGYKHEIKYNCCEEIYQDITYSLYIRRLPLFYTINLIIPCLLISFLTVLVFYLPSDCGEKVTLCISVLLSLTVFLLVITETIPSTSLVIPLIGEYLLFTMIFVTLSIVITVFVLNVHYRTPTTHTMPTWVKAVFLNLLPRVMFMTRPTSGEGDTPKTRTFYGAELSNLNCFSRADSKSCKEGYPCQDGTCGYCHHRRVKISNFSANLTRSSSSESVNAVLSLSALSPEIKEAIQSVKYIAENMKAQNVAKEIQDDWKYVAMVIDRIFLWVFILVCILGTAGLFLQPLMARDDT
- Sequence (P12392 whole entry): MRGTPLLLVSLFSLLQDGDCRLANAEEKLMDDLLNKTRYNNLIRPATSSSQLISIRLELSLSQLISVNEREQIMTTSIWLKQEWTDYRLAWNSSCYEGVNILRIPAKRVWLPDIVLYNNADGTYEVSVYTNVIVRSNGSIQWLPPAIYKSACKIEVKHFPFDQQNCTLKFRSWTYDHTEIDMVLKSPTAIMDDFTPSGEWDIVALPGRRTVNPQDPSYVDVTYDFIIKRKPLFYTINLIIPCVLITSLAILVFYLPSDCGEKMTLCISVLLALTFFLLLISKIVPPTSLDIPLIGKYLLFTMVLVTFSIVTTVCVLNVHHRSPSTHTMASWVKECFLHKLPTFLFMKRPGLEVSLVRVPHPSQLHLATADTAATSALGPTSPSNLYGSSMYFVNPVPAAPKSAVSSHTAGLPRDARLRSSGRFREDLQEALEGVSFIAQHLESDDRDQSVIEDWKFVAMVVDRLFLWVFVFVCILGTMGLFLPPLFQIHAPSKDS
- test.description: Displacement of [3H]epibatidine from rat alpha3beta4 nAChR transfected in HEK293 cell membrane
reported.property: Ki (µM)

{"compound": "c1cc2c(cn1)C1CCCN1CC2 (racemic)", "reported.property": "Ki", "endpoint.unit": "µM", "value.measured": 100}
{"compound": "c1cc2c(cn1)[C@H]1CCCN1CC2", "reported.property": "Ki", "endpoint.unit": "µM", "value.measured": 50}
{"compound": "c1cc2c(cn1)[C@@H]1CCCN1CC2", "reported.property": "Ki", "endpoint.unit": "µM", "value.measured": 100}
{"compound": "c1cc2c(cn1)CCN1CCCC21 (racemic)", "reported.property": "Ki", "endpoint.unit": "µM", "value.measured": 100}

###

- system.under.test: Neuronal acetylcholine receptor; alpha4/beta2 (Rattus norvegicus, UniProt P09483+P12390)
- Sequence (P09483 whole entry): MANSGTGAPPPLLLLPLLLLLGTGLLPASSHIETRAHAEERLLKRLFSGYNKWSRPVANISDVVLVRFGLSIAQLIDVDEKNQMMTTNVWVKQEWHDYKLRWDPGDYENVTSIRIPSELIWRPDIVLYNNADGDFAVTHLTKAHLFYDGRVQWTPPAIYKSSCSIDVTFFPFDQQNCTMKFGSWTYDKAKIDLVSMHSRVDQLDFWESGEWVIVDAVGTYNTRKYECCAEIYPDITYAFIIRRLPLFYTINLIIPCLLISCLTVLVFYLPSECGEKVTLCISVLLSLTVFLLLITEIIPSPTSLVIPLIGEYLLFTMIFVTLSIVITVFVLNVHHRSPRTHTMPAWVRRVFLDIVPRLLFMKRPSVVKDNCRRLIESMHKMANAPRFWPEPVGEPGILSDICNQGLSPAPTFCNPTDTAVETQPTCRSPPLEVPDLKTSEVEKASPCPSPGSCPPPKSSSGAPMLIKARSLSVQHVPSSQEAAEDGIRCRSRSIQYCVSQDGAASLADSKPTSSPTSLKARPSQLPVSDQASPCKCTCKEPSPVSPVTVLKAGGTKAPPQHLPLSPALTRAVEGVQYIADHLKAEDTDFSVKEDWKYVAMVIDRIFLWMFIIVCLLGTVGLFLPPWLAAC
- Sequence (P12390 whole entry): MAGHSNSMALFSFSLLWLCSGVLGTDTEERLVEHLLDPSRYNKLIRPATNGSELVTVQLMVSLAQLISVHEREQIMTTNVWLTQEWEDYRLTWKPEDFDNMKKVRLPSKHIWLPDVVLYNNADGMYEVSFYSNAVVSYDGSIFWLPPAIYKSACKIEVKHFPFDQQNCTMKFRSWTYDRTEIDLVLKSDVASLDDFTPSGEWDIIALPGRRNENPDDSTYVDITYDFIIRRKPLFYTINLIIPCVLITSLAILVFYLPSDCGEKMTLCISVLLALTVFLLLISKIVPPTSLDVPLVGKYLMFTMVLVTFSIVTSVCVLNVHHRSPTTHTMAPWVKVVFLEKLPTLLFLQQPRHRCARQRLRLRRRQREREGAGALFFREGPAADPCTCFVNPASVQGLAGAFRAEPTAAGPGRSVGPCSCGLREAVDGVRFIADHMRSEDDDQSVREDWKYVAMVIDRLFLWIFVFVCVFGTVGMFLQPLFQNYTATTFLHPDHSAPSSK
- test.description: Inhibition of rat (alpha4)2(beta2)3 nAChR expressed in Xenopus laevis oocytes assessed as inhibition of 100 uM ACh-induced current by two electrode-electrophysiology method
- Format: cell-based
reported.property: IC50

{"molecule.smiles": "c1cc2c(cn1)[C@H]1CCCN1CC2", "system.under.test": "Neuronal acetylcholine receptor; alpha4/beta2 (Rattus norvegicus, UniProt P09483+P12390)", "value.measured": "87 µM"}

###

Entries and their Ki values follow.
- system.under.test: Neuronal acetylcholine receptor; alpha4/beta4 (Rattus norvegicus, UniProt P09483+P12392)
- Sequence (P12392 whole entry, one chain of several): as the sequence (P12392 whole entry) above
- test.description: Displacement of [3H]epibatidine from rat alpha4beta4 nAChR transfected in HEK293 cell membrane

{"compound": "c1cc2c(cn1)[C@@H]1CCCN1CC2", "Ki": "100 µM"}
{"compound": "c1cc2c(cn1)CCN1CCCC21 (racemic)", "Ki": "100 µM"}
{"compound": "c1cc2c(cn1)C1CCCN1CC2 (racemic)", "Ki": "7.2 µM"}
{"compound": "c1cc2c(cn1)[C@H]1CCCN1CC2", "Ki": "3.7 µM"}

###

Entries and their Ki values follow.
- system.under.test: Neuronal acetylcholine receptor; alpha4/beta2 (Rattus norvegicus, UniProt P09483+P12390)
- test.description: Displacement of [3H]epibatidine from rat alpha4beta2 nAChR transfected in HEK293 cell membrane
- Type: cell membranes

{"compound": "c1cc2c(cn1)[C@@H]1CCCN1CC2", "endpoint.unit": "µM", "Ki": 3.4}
{"compound": "c1cc2c(cn1)CCN1CCCC21 (racemic)", "endpoint.unit": "µM", "Ki": 13}
{"compound": "c1cc2c(cn1)C1CCCN1CC2 (racemic)", "endpoint.unit": "µM", "Ki": 0.071}

###

Entries and their Ki values follow.
- system.under.test: Neuronal acetylcholine receptor subunit alpha-7 (Rattus norvegicus)
- Sequence (Q05941 whole entry): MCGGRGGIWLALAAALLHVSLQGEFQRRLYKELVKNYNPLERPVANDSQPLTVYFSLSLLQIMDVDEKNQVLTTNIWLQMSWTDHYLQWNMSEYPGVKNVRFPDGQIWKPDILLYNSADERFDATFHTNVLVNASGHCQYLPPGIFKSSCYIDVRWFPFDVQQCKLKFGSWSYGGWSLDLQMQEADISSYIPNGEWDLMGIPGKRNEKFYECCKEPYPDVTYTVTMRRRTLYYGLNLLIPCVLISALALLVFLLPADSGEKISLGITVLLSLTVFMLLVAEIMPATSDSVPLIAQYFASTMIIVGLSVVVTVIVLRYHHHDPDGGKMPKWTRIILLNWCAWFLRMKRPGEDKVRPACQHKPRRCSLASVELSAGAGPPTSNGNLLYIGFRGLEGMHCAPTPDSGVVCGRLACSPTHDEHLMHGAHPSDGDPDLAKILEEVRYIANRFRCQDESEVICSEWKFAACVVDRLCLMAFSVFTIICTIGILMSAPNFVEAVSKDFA
- test.description: Displacement of [3H]MLA from rat alpha7 nAChR transfected in tsA201 cell membrane

{"compound": "c1cc2c(cn1)[C@@H]1CCCN1CC2", "system.under.test": "Neuronal acetylcholine receptor subunit alpha-7 (Rattus norvegicus)", "Ki": "> 300 µM"}
{"compound": "c1cc2c(cn1)C1CCCN1CC2 (racemic)", "system.under.test": "Neuronal acetylcholine receptor subunit alpha-7 (Rattus norvegicus)", "Ki": "500 µM"}
{"compound": "c1cc2c(cn1)[C@H]1CCCN1CC2", "system.under.test": "Neuronal acetylcholine receptor subunit alpha-7 (Rattus norvegicus)", "Ki": "300 µM"}
